Field: ELISA_avg. Provide a value for each of the binders that follow.
target of assay: T1, HER2 (human, UniProt P04626 23-652)
T1 construct: The ELISA is not described; also called ERBB2; CD340
assay details: ELISA, format not described
Design: unit not given here
Answers are plain numbers.

Worked set:
HER2-binding D domain SEQ ID NO: 833 (designed binder, also called eb09) MGSWWEFNIRLHAIDYRLKALGGSEAELAAFEKEIAAFESELQAYKGKGNPEVELLREKAAQIRAQLQAYRHN    9.75
HER2-binding D domain SEQ ID NO: 822 (designed binder) MGSWWEFKVRLRAIEYRLSALGGSEAELAAFEKEIAAFESELQAYKGKGNPEVEELRVLAASIRIHLQAYRHN    10.1
HER2-binding D domain SEQ ID NO: 818 (designed binder) MGSWWEFKIRLYAIEYRLNALGGSEAELAAFEKEIAAFESELQAYKGKGNPEVEALRAKAAQIRYNLQAYRHN    4.49
HER2-binding D domain SEQ ID NO: 832 (designed binder) MGSWWEFQVRLSAIEYRLTALGGSEAELAAFEKEIAAFESELQAYKGKGNPEVEELRQKAARIRSLLQAYRHN    9.61
HER2-binding D domain SEQ ID NO: 840 (designed binder) MGSWWEFHIRLRAIKYRLYALGGSEAELAAFEKEIAAFESELQAYKGKGNPEVEDLRILAAEIRAQLQAYRHN    14.8
HER2-binding D domain SEQ ID NO: 817 (designed binder) MGSWWEFQVRLRAIQYRLNALGGSEAELAAFEKEIAAFESELQAYKGKGNPEVEYLRGLAAQIRFDLQAYRHN    14.4

// input: 3 binders below; output: ELISA_avg for each
1. HER2-binding D domain SEQ ID NO: 837 (designed binder) MGSWWEFNVRLQAIKYRLSALGGSEAELAAFEKEIAAFESELQAYKGKGNPEVEDLRKTAAHIRWQLQAYRHN
2. HER2-binding D domain SEQ ID NO: 836 (designed binder) MGSWWEFRIRLEAIWYRLHALGGSEAELAAFEKEIAAFESELQAYKGKGNPEVEDLRIFAANIRSKLQAYRHN
3. HER2-binding D domain SEQ ID NO: 839 (designed binder, also called eb10) MGSWWEFNMRLSAIKYRLYALGGSEAELAAFEKEIAAFESELQAYKGKGNPEVEILRRLAADIRERLQAYRHN

Reply:
1: 5.23; 2: 8.04; 3: 3.08

Lab note: measured ELISA_avg of HER2-binding D domain SEQ ID NO: 829 (designed binder) MGSWWEFHVRLKAIEYRLLALGGSEAELAAFEKEIAAFESELQAYKGKGNPEVEDLRYIAANIRQLLQAYRHN was 4.56

Ref: patent US20250026849A1
